ASSAY TARGET: T1, McrA (rMcrA-S, C-terminal StrepII) (Escherichia coli, UniProt P24200 P24200:1-277)
T1 sequence: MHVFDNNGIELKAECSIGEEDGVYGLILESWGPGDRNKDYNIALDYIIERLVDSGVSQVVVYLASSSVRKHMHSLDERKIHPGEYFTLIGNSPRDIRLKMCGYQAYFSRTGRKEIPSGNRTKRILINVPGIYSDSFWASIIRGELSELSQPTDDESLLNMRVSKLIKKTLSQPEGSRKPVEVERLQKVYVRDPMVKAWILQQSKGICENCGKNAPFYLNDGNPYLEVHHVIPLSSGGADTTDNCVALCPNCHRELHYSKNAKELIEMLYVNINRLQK
ASSAY NAME: EMSA; Ym5CGR somewhat higher affinity
PARTICULARS: tags: C-terminal StrepII SAWSHPQFEK

{"BINDER": "Tm5CGA cassette (dsDNA, 5mC at CpG (M.SssI), top 9, bottom 15) DNA 1: CCCTCTGTCGAAGGAGGCTCCTGC DNA 2: GCAGGAGCCTCCTTCGACAGAGGG", "binding result": "binds"}
{"BINDER": "Cm5CGG cassette (M.SssI) (dsDNA, 5mC at CpG (M.SssI), top 9, bottom 15) DNA 1: CCCTCTGCCGGAGGAGGATCCTGC DNA 2: GCAGGATCCTCCTCCGGCAGAGGG", "binding result": "binds"}
{"BINDER": "Tm5CGG cassette (dsDNA, 5mC at CpG (M.SssI), top 9, bottom 15) DNA 1: CCCTCTGTCGGAGGAGGCTCCTGC DNA 2: GCAGGAGCCTCCTCCGACAGAGGG", "binding result": "binds"}
{"BINDER": "Cm5CGA cassette (dsDNA, 5mC at CpG (M.SssI), top 9, bottom 15) DNA 1: CCCTCTGCCGAAGGAGGCTCCTGC DNA 2: GCAGGAGCCTCCTTCGGCAGAGGG", "binding result": "binds"}
